# MEASURED_ON: PAD4 (Homo sapiens, UniProt Q9UM07)
# Construct: made in house
# Sequence (Q9UM07 whole entry): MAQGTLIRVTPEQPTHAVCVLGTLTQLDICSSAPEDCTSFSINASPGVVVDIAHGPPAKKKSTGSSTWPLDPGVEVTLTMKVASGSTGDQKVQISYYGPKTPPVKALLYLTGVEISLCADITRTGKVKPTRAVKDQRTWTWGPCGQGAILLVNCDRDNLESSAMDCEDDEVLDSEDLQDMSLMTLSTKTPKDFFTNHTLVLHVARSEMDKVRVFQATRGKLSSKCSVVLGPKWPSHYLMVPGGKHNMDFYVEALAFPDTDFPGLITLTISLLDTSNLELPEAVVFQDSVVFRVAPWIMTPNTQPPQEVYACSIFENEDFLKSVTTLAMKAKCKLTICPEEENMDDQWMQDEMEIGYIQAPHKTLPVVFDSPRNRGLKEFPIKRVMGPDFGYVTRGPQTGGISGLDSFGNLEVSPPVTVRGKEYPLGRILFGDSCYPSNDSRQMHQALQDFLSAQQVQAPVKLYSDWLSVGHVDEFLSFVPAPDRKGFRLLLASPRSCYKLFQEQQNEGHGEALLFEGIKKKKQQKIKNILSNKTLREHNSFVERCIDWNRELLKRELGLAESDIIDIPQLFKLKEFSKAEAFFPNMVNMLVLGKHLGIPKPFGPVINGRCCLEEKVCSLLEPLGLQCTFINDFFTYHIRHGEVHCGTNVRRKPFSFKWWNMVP
# EXPERIMENT: Inactivation kinetics of PAD4 (COLDER citrulline assay)
# Type: biochemical
# ASSAY_CONDITIONS: bracketed value under kinact/KI
# Method: Inactivation kinetics. […] After 15 min, reactions were quenched with liquid nitrogen and the production of citrulline was quantified using the COLDER assay. […] When kobs with [I] varied linearly, kinact/KI was determined from the slope of the line. […]
OBSERVED_PROPERTY: Fold PAD selectivity

INSERT INTO assay_data (smiles_notation, measured_on, observed_property, recorded_result) VALUES
  ('N=C(CF)NCCC[C@H](NC(=O)c1cc(Cl)cc(Cl)c1O)c1nc2ccccc2[nH]1', 'PAD4 (Homo sapiens, UniProt Q9UM07)', 'Fold PAD selectivity', '[2] fold'),
  ('C#Cc1c(I)cc(C(=O)N[C@@H](CCCNC(=N)CCl)c2nc3ccccc3[nH]2)c(O)c1I', 'PAD4 (Homo sapiens, UniProt Q9UM07)', 'Fold PAD selectivity', '[3] fold'),
  ('N=C(CF)NCCC[C@H](NC(=O)c1cc(Br)cc(Br)c1O)c1nc2ccccc2[nH]1', 'PAD4 (Homo sapiens, UniProt Q9UM07)', 'Fold PAD selectivity', '[2] fold'),
  ('N=C(CF)NCCC[C@H](NC(=O)c1cc(I)cc(I)c1O)c1nc2ccccc2[nH]1', 'PAD4 (Homo sapiens, UniProt Q9UM07)', 'Fold PAD selectivity', '[2] fold'),
  ('N=C(CCl)NCCC[C@H](NC(=O)c1cccc(I)c1O)c1nc2ccccc2[nH]1', 'PAD4 (Homo sapiens, UniProt Q9UM07)', 'Fold PAD selectivity', '[3] fold'),
  ('N=C(CF)NCCC[C@H](NC(=O)c1cccc(I)c1O)c1nc2ccccc2[nH]1', 'PAD4 (Homo sapiens, UniProt Q9UM07)', 'Fold PAD selectivity', '[2] fold');

###

# MEASURED_ON: PAD2 (Homo sapiens, UniProt Q9Y2J8)
# Construct: made in house
# Sequence (Q9Y2J8 whole entry): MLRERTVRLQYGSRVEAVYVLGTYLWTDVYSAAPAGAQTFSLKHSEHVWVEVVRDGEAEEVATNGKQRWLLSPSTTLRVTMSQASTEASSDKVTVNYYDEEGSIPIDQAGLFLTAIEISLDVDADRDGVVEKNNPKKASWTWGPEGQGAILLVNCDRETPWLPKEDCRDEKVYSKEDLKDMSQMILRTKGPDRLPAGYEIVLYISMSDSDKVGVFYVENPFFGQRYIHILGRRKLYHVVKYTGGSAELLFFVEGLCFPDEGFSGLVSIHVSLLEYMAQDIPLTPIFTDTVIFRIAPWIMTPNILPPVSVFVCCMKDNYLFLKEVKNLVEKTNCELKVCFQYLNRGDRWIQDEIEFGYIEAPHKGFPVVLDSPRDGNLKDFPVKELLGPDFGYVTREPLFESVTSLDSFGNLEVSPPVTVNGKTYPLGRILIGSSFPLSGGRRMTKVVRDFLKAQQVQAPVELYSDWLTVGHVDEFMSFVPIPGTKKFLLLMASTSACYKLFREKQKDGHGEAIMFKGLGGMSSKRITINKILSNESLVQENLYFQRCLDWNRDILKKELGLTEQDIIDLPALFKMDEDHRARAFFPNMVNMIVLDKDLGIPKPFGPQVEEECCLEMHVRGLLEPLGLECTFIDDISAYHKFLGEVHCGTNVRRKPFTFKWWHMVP
# EXPERIMENT: Inactivation kinetics of PAD2 (COLDER citrulline assay)
# Assay type: biochemical
# ASSAY_CONDITIONS: marks: * nonlinear fit of kobs versus [I], ‡ linear fit, † single kobs, read-out: kinact/KI (converted)
# Description: Inactivation kinetics. […] After 15 min, reactions were quenched with liquid nitrogen and the production of citrulline was quantified using the COLDER assay. […] When kobs with [I] varied linearly, kinact/KI was determined from the slope of the line. […]
OBSERVED_PROPERTY: log10 kinact/KI (log10 of the value in M⁻¹ s⁻¹)

INSERT INTO measurements (compound, recorded_result) VALUES
  ('N=C(CF)NCCC[C@H](NC(=O)c1cc(Br)cc(Br)c1O)c1nc2ccccc2[nH]1 [Compound 11]', 0.34),
  ('N=C(CF)NCCC[C@H](NC(=O)c1cc(I)ccc1O)c1nc2ccccc2[nH]1 [Compound 15]', 0.30),
  ('N=C(CCl)NCCC[C@H](NC(=O)c1ccccc1O)c1nc2ccccc2[nH]1 [Compound 8]', 1.67),
  ('N=C(CF)NCCC[C@H](NC(=O)c1cc(I)c(F)c(I)c1O)c1nc2ccccc2[nH]1 [Compound 19]', 0.70),
  ('N=C(CF)NCCC[C@H](NC(=O)c1cc(Cl)cc(Cl)c1O)c1nc2ccccc2[nH]1 [Compound 13]', 0.34),
  ('N=C(CF)NCCC[C@H](NC(=O)c1cc(I)cc(I)c1O)c1nc2ccccc2[nH]1 [Compound 1]', 0.37),
  ('N=C(CF)NCCC[C@H](NC(=O)c1cc(I)cc(I)c1)c1nc2ccccc2[nH]1 [Compound 5]', 1.11),
  ('COc1c(I)cc(I)cc1C(=O)NC(CCCNC(=N)CF)c1nc2ccccc2[nH]1 (centres unmarked) [Compound 3]', 1.44);
